# Test system: Klebsiella pneumoniae
# assay-notes: Antimicrobial activity against ESBL-producing Klebsiella pneumoniae clinical isolate assessed as susceptible isolates
# Format: functional
So basically: Activity at 100 isolates or higher? That is criterion met. Lower than 100 isolates? That is criterion not met.

1. CC1(C)S[C@@H]2[C@H](NC(=O)[C@H](N)c3ccccc3)C(=O)N2[C@H]1C(=O)O ... criterion not met
2. NCC[C@H](O)C(=O)N[C@@H]1C[C@H](N)[C@@H](O[C@H]2O[C@H](CN)[C@@H](O)[C@H](O)[C@H]2O)[C@H](O)[C@H]1O[C@H]1O[C@H](CO)[C@@H](O)[C@H](N)[C@H]1O ... criterion met
3. CO/N=C(\C(=O)N[C@@H]1C(=O)N2C(C(=O)O)=C(COC(C)=O)CS[C@H]12)c1csc(N)n1 ... criterion not met
4. C[C@@H](O)[C@H]1C(=O)N2C(C(=O)O)=C(SCCNC=N)C[C@H]12 [IMIPENEM ANHYDROUS] ... criterion met

# ---- query compound ----
Form field: Activity at least 100 isolates? Entry: CC(C)(O/N=C(\C(=O)N[C@@H]1C(=O)N2C(C(=O)[O-])=C(C[n+]3ccccc3)CS[C@H]12)c1csc(N)n1)C(=O)O criterion not met

Where do the numbers come from? From ChEMBL document CHEMBL1629569.
